# collection of pKd values tested on biotinylated AVI-tagged EED (76-441) (Homo sapiens)
pKd: −log10 of the molar value.
assay.metric: pKd

{"columns": ["molecule", "result"],
 "data": [
  ["Cn1nccc1-c1cc2c(n3cc(C(=O)O)nc13)NCc1c(F)ccc3c1[C@@H](CO3)CO2", "8.00 to 8.30"],
  ["Cc1nccc(O)c1-c1cc2c(n3cnnc13)NCc1c(F)ccc3c1C(CO3)CO2 (centres unmarked)", "7.30 to 8.00"],
  ["Cn1ncc(O)c1-c1cc2c(n3cnnc13)NCc1c(F)ccc3c1C(CO3)CO2 (centres unmarked)", "> 8.60"],
  ["Cc1cncnc1-c1cc2c(n3cnnc13)NCc1c(F)ccc3c1[C@@H](CO3)CO2", "8.30 to 8.60"],
  ["CC(=O)N1CCC(c2cc3c(n4cnnc24)NCc2c(F)cccc2CCO3)CC1", "7.30 to 8.00"],
  ["COc1ncc(F)cc1-c1cc2c(n3cnnc13)NCc1c(F)ccc3c1[C@H](CO3)CO2", "8.30 to 8.60"],
  ["COc1cccnc1-c1cc2c(n3cnnc13)NCc1c(F)ccc3c1[C@@H](CO3)CO2", "7.30 to 8.00"],
  ["Cc1ncc(-c2cc3c(n4cnnc24)NCc2c(F)ccc4c2[C@@H](CO4)CO3)cc1N", "> 8.60"]
]}

---

System: human P-glycoprotein HEK cells (HEK-P-gp)
Test: H3K27me3 immunocytochemistry assay in P-gp expressing HEK293T cells, with or without elacridar
Type: cell-based
pIC50: −log10 of the molar value.
assay.metric: pIC50

{"columns": ["entry.smiles", "result"],
 "data": [
  ["Cn1cc(-c2cc3c(n4cnnc24)NCc2c(F)ccc4c2[C@@H](CO4)CO3)ccc1=O", "> 7.60"],
  ["Fc1ccc2c3c1CNc1c(cc(-c4ccnn4CC(F)(F)F)c4nncn14)OC[C@@H]3CO2", "7.00 to 7.30"],
  ["Cn1cnc(-c2cc3c(n4cnnc24)NCc2c(F)ccc4c2[C@@H](CO4)CO3)c1", "7.30 to 7.60"],
  ["Cc1nc(-c2cc3c(n4cnnc24)NCc2c(F)ccc4c2[C@@H](CO4)CO3)ccc1C(F)F", "6.30 to 7.00"],
  ["CN(C)C(=O)c1ccc(-c2cc3c(n4cnnc24)NCc2c(F)ccc4c2[C@@H](CO4)CO3)cn1", "> 7.60"],
  ["Cc1nccc(-c2cc3c(n4cnnc24)NCc2c(F)ccc4c2[C@@H](CO4)CO3)c1F", "7.30 to 7.60"],
  ["COc1cc(C)c(-c2cc3c(n4cnnc24)NCc2c(F)ccc4c2[C@@H](CO4)CO3)cn1", "7.00 to 7.30"],
  ["COc1nccc(C)c1-c1cc2c(n3cnnc13)NCc1c(F)ccc3c1[C@@H](CO3)CO2", "> 7.60"],
  ["CN(C)c1cc(-c2cc3c(n4cnnc24)NCc2c(F)ccc4c2[C@@H](CO4)CO3)n(C)n1", "6.30 to 7.00"],
  ["Cc1cc(C)c(-c2cc3c(n4cnnc24)NCc2c(F)ccc4c2[C@@H](CO4)CO3)cn1", "7.00 to 7.30"]
]}

---

Each entry below lists one item and its recorded IC50 value.
Biological target: EZH2/PRC2 complex (Homo sapiens, UniProt O75530)
Sequence (O75530 whole entry): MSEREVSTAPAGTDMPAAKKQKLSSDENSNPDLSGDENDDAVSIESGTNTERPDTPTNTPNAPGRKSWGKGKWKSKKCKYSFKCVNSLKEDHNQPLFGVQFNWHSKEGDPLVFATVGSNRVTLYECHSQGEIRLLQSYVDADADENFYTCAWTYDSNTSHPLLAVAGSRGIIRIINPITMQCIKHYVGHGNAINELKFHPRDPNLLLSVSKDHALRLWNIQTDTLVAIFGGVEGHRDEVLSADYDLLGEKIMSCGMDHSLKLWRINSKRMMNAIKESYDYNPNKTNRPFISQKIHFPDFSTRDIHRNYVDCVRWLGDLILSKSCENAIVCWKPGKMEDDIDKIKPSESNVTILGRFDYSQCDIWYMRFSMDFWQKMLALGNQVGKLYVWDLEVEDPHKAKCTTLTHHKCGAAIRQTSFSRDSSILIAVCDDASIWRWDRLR
Sequence (Q15910 whole entry partner): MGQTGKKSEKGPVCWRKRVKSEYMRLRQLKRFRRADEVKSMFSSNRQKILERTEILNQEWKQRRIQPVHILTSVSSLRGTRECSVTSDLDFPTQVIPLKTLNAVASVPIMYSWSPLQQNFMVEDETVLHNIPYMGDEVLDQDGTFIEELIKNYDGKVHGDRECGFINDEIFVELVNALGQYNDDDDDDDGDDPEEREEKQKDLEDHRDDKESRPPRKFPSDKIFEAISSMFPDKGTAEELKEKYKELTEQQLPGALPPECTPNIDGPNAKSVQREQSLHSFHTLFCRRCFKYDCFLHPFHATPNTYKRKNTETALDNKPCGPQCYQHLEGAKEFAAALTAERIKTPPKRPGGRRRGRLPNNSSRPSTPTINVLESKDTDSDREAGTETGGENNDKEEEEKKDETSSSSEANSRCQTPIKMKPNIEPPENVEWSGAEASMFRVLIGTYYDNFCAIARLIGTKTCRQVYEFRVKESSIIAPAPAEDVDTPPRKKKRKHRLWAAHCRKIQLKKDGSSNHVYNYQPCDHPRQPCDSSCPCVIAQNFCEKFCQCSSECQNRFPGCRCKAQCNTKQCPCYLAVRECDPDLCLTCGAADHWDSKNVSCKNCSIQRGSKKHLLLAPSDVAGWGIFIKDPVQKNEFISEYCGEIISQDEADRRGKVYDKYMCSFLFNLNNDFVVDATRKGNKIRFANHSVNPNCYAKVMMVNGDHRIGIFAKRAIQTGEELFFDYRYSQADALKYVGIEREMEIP
Sequence (Q15022 whole entry partner): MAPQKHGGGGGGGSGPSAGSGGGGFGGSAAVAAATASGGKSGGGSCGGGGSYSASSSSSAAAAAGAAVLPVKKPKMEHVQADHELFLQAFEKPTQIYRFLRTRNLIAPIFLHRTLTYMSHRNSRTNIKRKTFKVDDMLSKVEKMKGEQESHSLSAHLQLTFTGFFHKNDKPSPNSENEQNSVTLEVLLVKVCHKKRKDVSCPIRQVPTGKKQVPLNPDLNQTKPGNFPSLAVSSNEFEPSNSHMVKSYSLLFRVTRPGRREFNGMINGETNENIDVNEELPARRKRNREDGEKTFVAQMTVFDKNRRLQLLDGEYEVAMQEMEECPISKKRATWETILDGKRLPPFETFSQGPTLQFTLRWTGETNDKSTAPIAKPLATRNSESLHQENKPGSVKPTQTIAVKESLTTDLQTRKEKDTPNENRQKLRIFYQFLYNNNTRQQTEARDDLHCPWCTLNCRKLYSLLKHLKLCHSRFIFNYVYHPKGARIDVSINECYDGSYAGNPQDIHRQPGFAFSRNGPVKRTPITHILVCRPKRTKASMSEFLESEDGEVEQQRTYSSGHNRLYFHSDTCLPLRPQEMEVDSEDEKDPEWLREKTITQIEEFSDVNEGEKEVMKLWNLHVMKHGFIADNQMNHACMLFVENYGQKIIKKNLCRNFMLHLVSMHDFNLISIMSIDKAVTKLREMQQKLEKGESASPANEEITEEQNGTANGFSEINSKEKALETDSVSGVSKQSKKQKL
Test: Histone methyltransferase assay (radioisotope-based HotSpot)
Conditions: EZH2/PRC2 complex 10 nM, core histone substrate 0.05 mg/ml, 3H-SAM 1 μM; read-out: IC50, inhibitory effects on the HMT enzyme

{"columns": ["compound", "target.system", "IC50"],
 "data": [
  ["Cn1nc(F)cc1-c1cc2c(n3cnnc13)NCc1c(F)ccc3c1[C@@H](CO3)CO2 [Compound 168]", "EZH2/PRC2 complex (Homo sapiens, UniProt O75530)", "< 0.025 µM"],
  ["Cc1ncoc1-c1cc2c(n3cnnc13)NCc1c(F)ccc3c1[C@@H](CO3)CO2 [Compound 189]", "EZH2/PRC2 complex (Homo sapiens, UniProt O75530)", "< 0.025 µM"],
  ["CC(=O)N1CCC(c2cc3c(n4cnnc24)NCc2cccc4c2[C@@H](CO4)CO3)CC1 [Compound 3]", "EZH2/PRC2 complex (Homo sapiens, UniProt O75530)", "< 0.025 µM"],
  ["Cc1ncccc1-c1cc2c(n3cnnc13)NCc1c(F)cccc1CCO2 [Compound 5]", "EZH2/PRC2 complex (Homo sapiens, UniProt O75530)", "0.025 to 0.05 µM"]
]}

---

System: human P-glycoprotein HEK cells (HEK-P-gp)
Test: H3K27me3 immunocytochemistry assay in P-gp expressing HEK293T cells, with or without elacridar
Format: cell-based
Details: Homo sapiens, HEK293, 96 h, without elacridar; 4 days compound treatment; read-out: IC50, inhibitory activity on human P-glycoprotein HEK cells (HEK-P-gp)
pIC50: −log10 of the molar value.

{"columns": ["compound", "pIC50"],
 "data": [
  ["Cc1cc(-c2cc3c(n4cnnc24)NCc2c(F)ccc4c2[C@H](CO4)CO3)cnn1", "< 6.30"],
  ["Cc1ncccc1-c1cc2c(n3cnnc13)NCc1c(F)cccc1CCO2", "< 6.30"],
  ["COc1ncc(-c2cc3c(n4cnnc24)NCc2c(F)ccc4c2[C@H](CO4)CO3)cn1", "7.00 to 7.30"],
  ["COC(=O)N1CCC(c2cc3c(n4cnnc24)NCc2c(F)ccc4c2C(CO4)CO3)CC1 (centres unmarked)", "6.30 to 7.00"],
  ["CCOc1ncc(-c2cc3c(n4cnnc24)NCc2c(F)ccc4c2[C@H](CO4)CO3)cn1", "6.30 to 7.00"],
  ["Cn1cc(Cc2cc3c(n4cnnc24)NCc2c(F)ccc4c2[C@@H](CO4)CO3)cn1", "< 6.30"],
  ["Cc1ncc(-c2cc3c(n4cnnc24)NCc2c(F)ccc4c2[C@@H](CO4)CO3)cc1N", "< 6.30"],
  ["CN1CCN(c2ncc(-c3cc4c(n5cnnc35)NCc3c(F)ccc5c3[C@H](CO5)CO4)cn2)CC1", "6.30 to 7.00"]
]}

---

# collection of Kd values tested on biotinylated AVI-tagged EED (76-441) (Homo sapiens, UniProt O75530)

{"columns": ["entry.smiles", "Kd"],
 "data": [
  ["Cn1nc(F)cc1-c1cc2c(n3cnnc13)NCc1c(F)ccc3c1[C@@H](CO3)CO2", "< 2.5 nM"],
  ["Cn1nc(C(C)(C)C#N)cc1-c1cc2c(n3cnnc13)NCc1c(F)ccc3c1[C@@H](CO3)CO2", "< 2.5 nM"],
  ["Fc1ccc2c3c1CNc1c(cc(-c4cnc(C5CC5)nc4)c4nncn14)OC[C@@H]3CO2", "< 2.5 nM"],
  ["CC(=O)N1CC=C(c2cc3c(n4cnnc24)NCc2c(F)ccc4c2[C@@H](CO4)CO3)CC1", "< 2.5 nM"],
  ["Cn1nc(C(F)(F)F)cc1-c1cc2c(n3cnnc13)NCc1c(F)ccc3c1[C@H](CO3)CO2", "< 2.5 nM"],
  ["Fc1ccc2c3c1CNc1c(cc(-c4cnco4)c4nncn14)OC[C@@H]3CO2", "< 2.5 nM"],
  ["Cc1ncccc1-c1cc2c(n3cc(C(N)=O)nc13)NCc1c(F)ccc3c1[C@@H](CO3)CO2", "10 to 50 nM"],
  ["Fc1cncnc1-c1cc2c(n3cnnc13)NCc1c(F)ccc3c1[C@@H](CO3)CO2", "< 2.5 nM"],
  ["Fc1ccc2c3c1CNc1c(cc(-c4ncncc4Cl)c4nncn14)OC[C@@H]3CO2", "< 2.5 nM"],
  ["Cc1ncoc1-c1cc2c(n3cnnc13)NCc1c(F)ccc3c1[C@@H](CO3)CO2", "< 2.5 nM"],
  ["Fc1ccc2c3c1CNc1c(cc(-c4cnn5c4CCC5)c4nncn14)OC[C@@H]3CO2", "< 2.5 nM"],
  ["CCOc1ncc(-c2cc3c(n4cnnc24)NCc2c(F)ccc4c2[C@H](CO4)CO3)cn1", "< 2.5 nM"],
  ["Cc1cc(Cl)cnc1-c1cc2c(n3cnnc13)NCc1c(F)ccc3c1[C@@H](CO3)CO2", "2.5 to 5 nM"],
  ["CC(=O)N1CCC(c2cc3c(n4cnnc24)NCc2cccc4c2[C@@H](CO4)CO3)CC1", "< 2.5 nM"],
  ["Cc1ccc(C(F)F)c(-c2cc3c(n4cnnc24)NCc2c(F)ccc4c2[C@@H](CO4)CO3)n1", "2.5 to 5 nM"],
  ["Fc1ccc2c3c1CNc1c(cc(-c4ccc(C(F)(F)F)nc4)c4nncn14)OC[C@H]3CO2", "2.5 to 5 nM"]
]}

---

Test system: human P-glycoprotein HEK cells (HEK-P-gp)
Experiment: H3K27me3 immunocytochemistry assay in P-gp expressing HEK293T cells, with or without elacridar
Format: cell-based
Settings: Homo sapiens, HEK293, 96 h, without elacridar; 4 days compound treatment; read-out: IC50, inhibitory activity on human P-glycoprotein HEK cells (HEK-P-gp)
pIC50: −log10 of the molar value.
assay.metric: pIC50

{"columns": ["compound", "result"],
 "data": [
  ["CS(=O)(=O)c1ccc(-c2cc3c(n4cnnc24)NCc2c(F)ccc4c2C(CO4)CO3)cc1 (centres unmarked) [Example 36]", "> 7.60"],
  ["Cc1ncc(O)cc1-c1cc2c(n3cnnc13)NCc1c(F)ccc3c1[C@@H](CO3)CO2 [Compound 194]", "7.00 to 7.30"],
  ["Cc1ccc(C(F)F)c(-c2cc3c(n4cnnc24)NCc2c(F)ccc4c2[C@@H](CO4)CO3)n1 [Compound 144]", "6.30 to 7.00"],
  ["Cn1nccc1-c1cc2c(n3cc(C#N)nc13)NCc1c(F)ccc3c1[C@@H](CO3)CO2 [Compound 172]", "7.30 to 7.60"],
  ["CN(C)c1ncc(-c2cc3c(n4cnnc24)NCc2c(F)ccc4c2[C@H](CO4)CO3)cn1 [Example 108]", "< 6.30"],
  ["Cc1cn(-c2cc3c(n4cnnc24)NCc2c(F)ccc4c2[C@@H](CO4)CO3)cn1 [Compound 15]", "7.30 to 7.60"],
  ["Cn1nc(F)cc1-c1cc2c(n3cnnc13)NCc1c(F)ccc3c1[C@@H](CO3)CO2 [Compound 168]", "> 7.60"],
  ["c1cc2c3c(c1)OC[C@H]3COc1ccc3nncn3c1NC2 [Compound 11]", "< 6.30"]
]}
